Data provenance: ChEMBL document CHEMBL3885881

# maps each entry to its ABSOLUTE EOSINOPHIL
- Organism: Rattus norvegicus
- Test: DrugMatrix - Regimen: Daily Repeat
- Format: toxicity, organism-based, Sprague-Dawley
- Set-up: regimen Daily Repeat, gender Male, age 6-8 weeks
- Test conditions: in vivo, po, 0 mg/kg, 72 h, tissue Blood, route oral GAVAGE, dose level Control, time 3 day, […]
The reply should be a number in CELLS/uL, with the unit left off.

Some compounds with recorded ABSOLUTE EOSINOPHIL:
Structure notation	Value unit	ABSOLUTE EOSINOPHIL
CC(C)Cc1ccc(CC(=O)O)cc1	CELLS/uL	255.83
COc1ncnc(NS(=O)(=O)c2ccc(N)cc2)c1OC	CELLS/uL	41.83

(Q) Request the reported ABSOLUTE EOSINOPHIL associated with CC[C@H](C)C(=O)O[C@H]1C[C@H](O)C=C2C=C[C@H](C)[C@H](CC[C@@H](O)C[C@@H](O)CC(=O)O)[C@H]21
(A) 14
